Test system: blackgrass
Assay: Test B pre/postemergence blackgrass
Assay type: in vivo, Alopecurus myosuroides
Conditions: Preemergence, Rate 125 g/ha; scale of 0 to 10 where 0 is no effect and 10 is complete control
quantity-measured: Plant response rating, Blackgrass
Provide a numeric answer; units are not to be included.

| molecule | number |
| --- | --- |
| COCC(OC)n1c(=O)on(C(=O)N(c2ccc(Cl)cc2)C(C)C)c1=O (stereo not drawn) | 8 |
| CC(C)N(C(=O)n1oc(=O)n(C(C)C2CC2)c1=O)c1ccc(F)cc1 (stereo not drawn) | 7 |
| C=CC[Si](C)(C)Cn1c(=O)on(C(=O)N(c2ccc(F)cc2)C(C)C)c1=O | 6 |
| CC(C)N(C(=O)n1oc(=O)n(C(C)C(=S)N(C)C)c1=O)c1ccc(F)cc1 (stereo not drawn) | 9 |
| COC(=O)C(c1ccccc1)n1c(=O)on(C(=O)N(c2ccc(F)cc2)C(C)C)c1=O (stereo not drawn) | 0 |

Value of Plant response rating, Blackgrass reported for the molecule `C#CCn1c(=O)on(C(=O)N(c2ccc(F)cc2)C(C)C)c1=O` is 8

Item: CCOC(=O)CC(C(=O)OCC)n1c(=O)on(C(=O)N(c2ccc(F)cc2F)C(C)C)c1=O (stereo not drawn) | Plant response rating, Blackgrass: 3

Form: molecule = `CC(C)N(C(=O)n1oc(=O)n(CCC[Si](C)(C)C)c1=O)c1ccc(F)cc1` ; Plant response rating, Blackgrass = 0

Plant response rating, Blackgrass measured on COC(CCl)n1c(=O)on(C(=O)N(c2ccc(Cl)cc2)C(C)C)c1=O (stereo not drawn) = 8

Measured Plant response rating, Blackgrass, `CC(C)N(C(=O)n1oc(=O)n(C2CCCCCC2)c1=O)C1=CCCCC1` : 0

The reported Plant response rating, Blackgrass of the molecule Cc1nc(C(C)n2c(=O)on(C(=O)N(c3ccccc3)C(C)C)c2=O)sc1C (stereo not drawn) was 2

So for `CC(C)N(C(=O)n1oc(=O)n(C(CCl)CCl)c1=O)c1ccc(F)cc1` , the logged Plant response rating, Blackgrass turned out to be 3

###

Tested on: pigweed
Assay: Test B pre/postemergence pigweed
Assay type: in vivo, Amaranthus retroflexus
Details: Postemergence, Rate 250 g/ha; scale 0 to 10, 0 no effect, 10 complete control
# maps each entry to its Redroot pigweed plant response rating
I'd appreciate a reply containing only the number, no unit.

Guide cases for Redroot pigweed plant response rating, answers given:
| compound | number |
| --- | --- |
| COc1ccc(-n2c(=O)on(C(=O)N(C3=CCOCC3)C(C)C)c2=O)cc1 [Compound 6] | 0 |
| Cc1ccccc1-n1c(=O)on(C(=O)N(C2=CCOCC2)C(C)C)c1=O [Compound 10] | 0 |

Reported pigweed Redroot pigweed plant response rating for item CCN(C(=O)n1oc(=O)n(-c2c(C)cc(C)cc2C)c1=O)C1CCCCC1 [Compound 63] was 0

###

Test system: winter wheat
Test: Test E winter wheat
Type: in vivo, Triticum aestivum
Details: Preemergence, Rate 250 g/ha; 0 to 100 scale
quantity-measured: Plant response rating, Wheat (winter)

// known answers, use as guide
| compound | Plant response rating, Wheat (winter) |
| --- | --- |
| CC(C)N(C(=O)n1oc(=O)n(C(C)CCl)c1=O)c1ccc(F)cc1 (stereo not shown) [Compound 367] | 40 |
| CCn1c(=O)on(C(=O)N(c2ccc(Cl)cc2)C(C)C)c1=O [Compound 108] | 10 |

Plant response rating, Wheat (winter) for Cc1ccccc1Cn1c(=O)on(C(=O)N(c2ccc(F)cc2)C(C)C)c1=O [Compound 88] is 0

Summary for this compound, CCN(CC)C(=O)n1oc(=O)n(C2CC2)c1=O [Compound 297] : Plant response rating, Wheat (winter) is 30

###

Listed here are compounds together with their documented Redroot pigweed plant response rating.
Tested on: pigweed
Assay: Test B pre/postemergence pigweed
Type: in vivo, Amaranthus retroflexus
Details: Postemergence, Rate 125 g/ha; scale 0 to 10, 0 is no effect, 10 is complete control
Protocol: […] At the same time, these crop and weed species were also treated with postemergence applications of test chemicals formulated in the same manner. […] Treated plants and controls were maintained in a greenhouse for twelve to sixteen days, after which all species were compared to controls and visually evaluated. […]
# output: bare number, no unit

Example entries begin here.
| compound | number |
| --- | --- |
| CC(C)N(C(=O)n1oc(=O)n(CCc2ccccc2)c1=O)c1ccc(F)cc1F [Compound 508] | 7 |
| CCOC(=O)C=C(Cn1c(=O)on(C(=O)N(c2ccc(F)cc2F)C(C)C)c1=O)OCC [Compound 519] | 0 |

According to the records, this compound CC(C)=CCn1c(=O)on(C(=O)N(c2ccc(Cl)cc2)C(C)C)c1=O [Compound 545] displays Redroot pigweed plant response rating of 0

Value of measured Redroot pigweed plant response rating for the entry CCc1nc(C)c(Cn2c(=O)on(C(=O)N(c3ccc(Cl)cc3)C(C)C)c2=O)s1 [Compound 499] : 0

###

System: bedstraw
Assay: Test B pre/postemergence bedstraw
Format: in vivo, Galium aparine
Conditions: Preemergence, Rate 250 g/ha; scale of 0 to 10 where 0 is no effect and 10 is complete control
quantity-measured: Bedstraw plant response rating
No unit in the answer, only the number.

Completed entries (count: 5):
| compound | Bedstraw plant response rating |
| --- | --- |
| CC(C)N(C(=O)n1oc(=O)n(C(C)CCl)c1=O)c1ccc(F)cc1 (stereo not drawn) [Compound 367] | 10 |
| C=CCn1c(=O)on(C(=O)N(c2ccc(F)cc2)C(C)C(=O)OCC)c1=O (stereo not drawn) [Compound 279] | 0 |
| CCCCn1c(=O)on(C(=O)N(c2ccc(F)cc2)C(C)C)c1=O [Compound 221] | 4 |
| CC(C)N(C(=O)n1oc(=O)n(CC#C[Si](C)(C)C)c1=O)c1ccc(F)cc1 [Compound 213] | 0 |
| CC(C)N(C(=O)n1oc(=O)n(CCCN(C)C)c1=O)c1ccc(F)cc1 [Compound 323] | 0 |

Now consider a different compound.
Record Cc1ccccc1-n1c(=O)on(C(=O)N(c2ccc(N(C)C)cc2)C(C)C)c1=O [Compound 237] . Reported Bedstraw plant response rating: 0

###

System: sugar beet
Test: Test B pre/postemergence sugar beet
Type: in vivo, Beta vulgaris
Conditions: Rate 500 g/ha, Postemergence; scale 0 to 10, 0 is no effect, 10 is complete control
Sugarbeets plant response rating reference

| molecule | test-system | Sugarbeets plant response rating |
| --- | --- | --- |
| CCC(C)n1c(=O)on(C(=O)N(c2ccc(F)cc2)C(C)C)c1=O (stereo not shown) [Compound 751] | sugar beet | 3 |
| Cc1nc(C(C)n2c(=O)on(C(=O)N(c3ccccc3)C(C)C)c2=O)sc1C (stereo not shown) [Compound 756] | sugar beet | 0 |
| C#CCCn1c(=O)on(C(=O)N(c2ccc(F)cc2F)C(C)C)c1=O [Compound 744] | sugar beet | 5 |

Shift focus to the following entry.
Query CC(C)N(C(=O)n1oc(=O)n(C(CCl)CCl)c1=O)c1ccc(F)cc1 [Compound 672] yields Sugarbeets plant response rating of 3

###

System: surinam grass
Experiment: Test B pre/postemergence surinam grass
Format: in vivo, Brachiaria decumbens
Details: Preemergence, Rate 500 g/ha; scale of 0 to 10 where 0 is no effect and 10 is complete control
Procedure: […] At the same time, these crop and weed species were also treated with postemergence applications of test chemicals formulated in the same manner. […] Treated plants and controls were maintained in a greenhouse for twelve to sixteen days, after which all species were compared to controls and visually evaluated. […]
quantity-measured: Plant response rating, B. signalgrass
# output: bare number, no unit

Below: 2 compounds and their reported Plant response rating, B. signalgrass.
| structure | Plant response rating, B. signalgrass |
| --- | --- |
| CCC(CC)N(C(=O)n1oc(=O)n(-c2ccccc2C)c1=O)c1ccc(F)cc1 | 0 |
| CC(C)N(C(=O)n1oc(=O)n(CC(=O)OC(C)(C)C)c1=O)c1ccc(F)cc1 | 4 |

Now take the following compound into account.
`Cc1ccccc1-n1c(=O)on(C(=O)N(c2ccc(C(C)(C)C)cc2)C(C)C)c1=O` yielded Plant response rating, B. signalgrass of 0

###

Tested on: velvetleaf
Test: Test B pre/postemergence velvetleaf
Format: in vivo, Abutilon theophrasti
Details: Preemergence, Rate 500 g/ha; scale of 0 to 10 where 0 is no effect and 10 is complete control
quantity-measured: Velvetleaf plant response rating
Returns: the value as a bare number; no unit string appended.

| molecule | number |
| --- | --- |
| CC(C)C(C)n1c(=O)on(C(=O)N(c2ccc(F)cc2)C(C)C)c1=O (stereo not shown) | 6 |
| CC(C)N(C(=O)n1oc(=O)n(-c2ccc3ccccc3c2)c1=O)c1ccc(F)cc1F | 0 |
| CCOC(=O)C=C(Cn1c(=O)on(C(=O)N(c2ccccc2)C(C)C)c1=O)OCC | 2 |

Next up:
Form: item `CCCCCn1c(=O)on(C(=O)N(c2ccc(Cl)cc2)C(C)C)c1=O` ; test system velvetleaf; Velvetleaf plant response rating: 0
